# System name: Spo11;Rec102;Rec104;Ski8 (Saccharomyces cerevisiae;Saccharomyces …, UniProt P23179;Q02721;P33323;Q02793 1-398;1-264;1-182;1-397, |||)
# Sequence (P23179 whole entry, chain 1 of 4): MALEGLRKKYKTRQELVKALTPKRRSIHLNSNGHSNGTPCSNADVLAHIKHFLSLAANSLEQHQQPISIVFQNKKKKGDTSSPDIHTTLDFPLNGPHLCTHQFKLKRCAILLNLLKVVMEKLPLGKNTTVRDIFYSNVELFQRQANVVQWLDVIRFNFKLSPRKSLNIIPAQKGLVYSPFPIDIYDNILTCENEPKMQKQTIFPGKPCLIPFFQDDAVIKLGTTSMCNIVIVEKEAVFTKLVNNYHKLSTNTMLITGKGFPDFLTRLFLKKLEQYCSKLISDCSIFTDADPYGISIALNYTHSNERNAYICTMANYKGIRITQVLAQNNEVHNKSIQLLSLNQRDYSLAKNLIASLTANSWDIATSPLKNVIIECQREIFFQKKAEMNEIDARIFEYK
# Sequence (Q02721 whole entry, chain 2 of 4): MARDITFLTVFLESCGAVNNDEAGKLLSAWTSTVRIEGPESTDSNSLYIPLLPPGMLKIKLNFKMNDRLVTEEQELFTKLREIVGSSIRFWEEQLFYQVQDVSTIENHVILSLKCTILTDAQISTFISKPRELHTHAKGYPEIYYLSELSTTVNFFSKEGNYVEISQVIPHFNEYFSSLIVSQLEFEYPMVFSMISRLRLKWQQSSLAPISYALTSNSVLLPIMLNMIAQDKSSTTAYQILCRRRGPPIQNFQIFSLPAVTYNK
# Sequence (P33323 whole entry, chain 3 of 4): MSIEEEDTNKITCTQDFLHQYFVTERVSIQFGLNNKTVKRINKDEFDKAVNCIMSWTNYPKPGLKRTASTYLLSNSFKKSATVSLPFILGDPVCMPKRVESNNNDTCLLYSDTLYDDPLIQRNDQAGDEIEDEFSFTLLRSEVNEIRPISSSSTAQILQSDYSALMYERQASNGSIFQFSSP
# Sequence (Q02793 whole entry, chain 4 of 4): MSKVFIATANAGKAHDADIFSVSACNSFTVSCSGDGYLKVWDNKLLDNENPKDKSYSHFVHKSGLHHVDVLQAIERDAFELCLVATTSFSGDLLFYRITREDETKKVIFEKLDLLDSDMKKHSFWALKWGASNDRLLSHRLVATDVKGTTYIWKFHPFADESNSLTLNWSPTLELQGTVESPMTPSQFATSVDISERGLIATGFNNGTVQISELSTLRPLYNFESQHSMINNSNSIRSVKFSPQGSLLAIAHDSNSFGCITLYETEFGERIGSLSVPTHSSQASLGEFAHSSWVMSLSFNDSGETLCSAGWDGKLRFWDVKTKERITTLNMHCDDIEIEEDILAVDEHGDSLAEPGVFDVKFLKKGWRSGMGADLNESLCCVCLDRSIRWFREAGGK
# Protocol details: EMSA
Assay endpoint: binding result

25 bp (dsDNA) DNA 1: TAGCAATGTAATCGTCTATGACGTT DNA 2: TAAACGTCATAGACGATTACATTGC    binds
24 bp (dsDNA) DNA 1: TAGCAATGTAATCGTCTATGACGT DNA 2: TAACGTCATAGACGATTACATTGC    binds
31 bp (dsDNA) DNA 1: TAGCAATGTAATCGTCTATGACGTGTAGCGC DNA 2: TAGCGCTACACGTCATAGACGATTACATTGC    binds
